tested on: sporadic PD patient fibroblasts; assay: Mitochondrial membrane potential (MMP, TMRM) in sporadic PD patient fibroblasts; assay type: cell-based; details: Homo sapiens, Fibroblast; max response with lowest dose (0.06 nM); 6 sporadic PD patient fibroblasts; 24 h; read-out: MMP Bottom (% of vehicle treated)
MEASUREMENT_LABEL: activity at 60 pM (%)
One number for each entry, in %.

Looking up C[C@H](CCC(=O)O)[C@H]1CC[C@H]2[C@@H]3[C@H](O)C[C@@H]4C[C@@H](O)[C@@H](F)C[C@]4(C)[C@H]3CC[C@]12C [Compound 2] , I found its activity at 60 pM recorded as 107

C[C@H](CCC(=O)O)[C@H]1CC[C@H]2[C@@H]3[C@H](O)C[C@@H]4C[C@H](O)C(F)=C[C@]4(C)[C@H]3CC[C@]12C [Compound H, reference compound] has a reported activity at 60 pM of 99.8

Lab book: activity at 60 pM of C[C@H](CCC(=O)O)[C@H]1CC[C@H]2[C@@H]3C(=O)C[C@@H]4CC(=O)C(F)(F)C[C@]4(C)[C@H]3CC[C@]12C [Compound E, 2,2-difluoro-3,7-dioxo-5β-cholanic acid, reference compound] noted as 105

Would you mind giving activity at 60 pM for every compound in the list below?
1. C[C@H](CCC(=O)O)[C@H]1CC[C@H]2[C@@H]3[C@@H](O)C[C@@H]4C[C@@H](O)C(F)=C[C@]4(C)[C@H]3CC[C@]12C [Compound F, reference compound]
2. C[C@H](CCC(=O)O)[C@H]1CC[C@H]2[C@@H]3C(=O)C[C@@H]4CC(=O)C(F)=C[C@]4(C)[C@H]3CC[C@]12C [Compound G, 2-fluoro-3,7-dioxo-5β-chol-1-enic acid, reference compound]

Marked response:
1: 110; 2: 103
